Reported inhibition at 1 µM values for the following molecules.
target: FAAH (Mus musculus (Mouse)); test: In vitro competitive activity-based protein profiling, mouse proteomes (brain membrane fraction or cell lysates); format: biochemical; details: mouse proteome, read-out: FAAH % inh. 1 μM (mouse)
Sequence (O08914 whole entry): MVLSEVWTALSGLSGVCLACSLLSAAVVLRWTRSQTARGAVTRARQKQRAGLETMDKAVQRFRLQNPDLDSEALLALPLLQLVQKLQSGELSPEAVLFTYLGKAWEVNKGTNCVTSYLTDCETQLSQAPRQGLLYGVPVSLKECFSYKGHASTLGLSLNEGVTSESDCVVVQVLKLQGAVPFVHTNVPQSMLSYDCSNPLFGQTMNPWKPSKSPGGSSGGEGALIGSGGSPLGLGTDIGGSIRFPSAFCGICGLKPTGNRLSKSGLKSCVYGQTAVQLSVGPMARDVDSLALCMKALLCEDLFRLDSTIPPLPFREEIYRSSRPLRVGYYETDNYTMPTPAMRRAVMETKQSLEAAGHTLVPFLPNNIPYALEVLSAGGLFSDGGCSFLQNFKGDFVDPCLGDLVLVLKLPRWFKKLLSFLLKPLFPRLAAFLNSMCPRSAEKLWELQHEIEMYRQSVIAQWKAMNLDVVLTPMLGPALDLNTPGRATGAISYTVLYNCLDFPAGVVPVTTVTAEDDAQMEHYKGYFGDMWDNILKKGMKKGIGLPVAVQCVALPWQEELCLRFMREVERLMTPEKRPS

Some entries whose results are on file:
molecule="CC(=O)Nc1ccn(C(=O)N2CC3CN(Cc4ccc(Cl)cc4)CC3C2)n1 (stereo not shown)" result="50 to 75%"
molecule=C[C@H]1CN(Cc2ccc(Cl)c(N3CCC(F)CC3)c2)CCN1C(=O)n1ccc(NS(C)(=O)=O)n1 result="0 to 25%"
molecule=CS(=O)(=O)Nc1ccn(C(=O)N2CCN(Cc3ccc(C(F)(F)F)nc3N3CCCC3)CC2)n1 result="0 to 25%"

Next:
QUERY: Quick one: inhibition at 1 µM of CC(=O)Nc1ccn(C(=O)N2CCN(Cc3ccc(-c4ccccc4)cc3C)CC2)n1 ?
RESULT: > 75%

----------
target: FAAH (Homo sapiens (Human), UniProt O00519); experiment: In vitro competitive activity-based protein profiling, human proteomes (prefrontal cortex or PC3 cell membrane fractions); format: biochemical; conditions: 1 μM, human proteome; read-out: FAAH % inh. 1 μM (human)
Sequence (O00519 whole entry): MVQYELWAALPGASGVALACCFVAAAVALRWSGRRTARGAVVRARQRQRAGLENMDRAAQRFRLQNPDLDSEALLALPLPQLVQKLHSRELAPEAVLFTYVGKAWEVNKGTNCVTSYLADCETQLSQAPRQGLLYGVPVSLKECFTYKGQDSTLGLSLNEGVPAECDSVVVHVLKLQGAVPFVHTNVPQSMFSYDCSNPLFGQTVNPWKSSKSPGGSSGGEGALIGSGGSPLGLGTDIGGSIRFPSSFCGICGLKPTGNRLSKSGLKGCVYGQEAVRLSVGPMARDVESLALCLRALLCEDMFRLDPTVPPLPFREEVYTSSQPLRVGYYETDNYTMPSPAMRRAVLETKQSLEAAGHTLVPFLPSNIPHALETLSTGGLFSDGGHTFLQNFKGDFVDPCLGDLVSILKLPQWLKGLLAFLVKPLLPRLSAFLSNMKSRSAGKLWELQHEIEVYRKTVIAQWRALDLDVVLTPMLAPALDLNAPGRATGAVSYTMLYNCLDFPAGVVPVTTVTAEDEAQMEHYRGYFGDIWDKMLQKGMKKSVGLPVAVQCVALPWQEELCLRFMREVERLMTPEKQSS
reported-property: inhibition at 1 µM

Some entries whose results are on file:
compound="CN(Cc1ccc(Cl)c(N2CC3COCC3C2)c1)C1(C)CCN(C(=O)n2ccc(NS(C)(=O)=O)n2)CC1 (centres unmarked) [Example 26]" reported_property="inhibition at 1 µM" result="0 to 25%"
compound="CC(=O)Nc1ccn(C(=O)N2CC3CN(Cc4cc(N5CCOCC5)cc(C(F)(F)F)c4)CC3C2)n1 (centres unmarked) [Example 166]" reported_property="inhibition at 1 µM" result="0 to 25%"
compound="CC(=O)Nc1ccn(C(=O)N2CCN(Cc3ccc(Cl)cc3OC3(C(=O)O)CC3)CC2)n1 [Example 4]" reported_property="inhibition at 1 µM" result="0 to 25%"
compound="CC(=O)Nc1ccn(C(=O)N2CC3CN(Cc4cc(Cl)cc(C(C)(C)O)c4)CC3C2)n1 (centres unmarked) [Example 16]" reported_property="inhibition at 1 µM" result="25 to 50%"
compound="CS(=O)(=O)Nc1ccn(C(=O)N2CCC(Oc3ccc(C(F)(F)F)c(-c4nnco4)c3)CC2)n1 [Example 5]" reported_property="inhibition at 1 µM" result="0 to 25%"

QUERY: Quick one: inhibition at 1 µM of CS(=O)(=O)Nc1ccn(C(=O)N2CCC(Oc3ccc(C(F)(F)F)cc3N3CCCC3)CC2)n1 [Example 80] ?
RESULT: 0 to 25%

QUERY: What would you report for Cc1c(CN2CCN(C(=O)n3ccc(NS(C)(=O)=O)n3)CC2)[nH]c2c(Cl)cccc12 [Example 65] ?
RESULT: 0 to 25%

QUERY: What would you report for CC(=O)Nc1ccn(C(=O)N2CC3CN(Cc4cc(Cl)cc(C(F)(F)F)c4)CC3C2)n1 (centres unmarked) [Example 146] ?
RESULT: > 75%

----------
molecular target: UniProt:Q99685; experiment: In vitro competitive activity-based protein profiling, human proteomes (prefrontal cortex or PC3 cell membrane fractions); assay type: biochemical; details: 1 μM, human proteome; read-out: MAGL % inh. 1 μM (human)
reported-property: inhibition at 1 µM

QUERY: Quick one: inhibition at 1 µM of CC(C)OC1CCN(c2cc(CN3CCN(C(=O)n4ccc(NS(C)(=O)=O)n4)C[C@@H]3C)ccc2Cl)CC1 [Example 32] ?
RESULT: > 75%

----------
molecular target: MAGL (Homo sapiens (Human), UniProt Q99685); test: In vitro competitive activity-based protein profiling, human proteomes (prefrontal cortex or PC3 cell membrane fractions); type: biochemical; conditions: 1 μM, human proteome; read-out: MAGL % inh. 1 μM (human)
Sequence (Q99685 whole entry): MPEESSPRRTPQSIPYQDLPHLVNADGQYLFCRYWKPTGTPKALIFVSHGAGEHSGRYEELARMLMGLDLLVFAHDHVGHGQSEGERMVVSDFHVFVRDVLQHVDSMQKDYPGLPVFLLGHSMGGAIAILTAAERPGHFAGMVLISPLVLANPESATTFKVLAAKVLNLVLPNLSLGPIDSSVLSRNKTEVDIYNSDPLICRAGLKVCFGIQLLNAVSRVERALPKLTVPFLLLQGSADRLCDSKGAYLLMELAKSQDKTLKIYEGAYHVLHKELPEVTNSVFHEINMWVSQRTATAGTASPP
reported-property: inhibition at 1 µM

Some entries whose results are on file:
smiles_representation=CN(Cc1ccc(Cl)c(N2CCCC2)c1)C1(C)CCN(C(=O)n2ccc(NS(C)(=O)=O)n2)CC1 result="> 75%"
smiles_representation=CS(=O)(=O)Nc1ccn(C(=O)N2CCC3(CCCN3Cc3ccc(Cl)c(N4CCCC4)c3)CC2)n1 result="> 75%"
smiles_representation=C[C@H]1CN(C(=O)n2ccc(NS(C)(=O)=O)n2)CCN1Cc1ccc(Cl)c(N2CCCC2)c1 result="> 75%"
smiles_representation=CS(=O)(=O)Nc1ccn(C(=O)N2CCN(Cc3cc4cc(Cl)ccc4s3)CC2)n1 result="> 75%"
smiles_representation=C[C@H]1CN(C(=O)n2ccc(NS(C)(=O)=O)n2)CCN1Cc1ccc(C(F)(F)F)c(N2CCC(C(F)(F)F)CC2)c1 result="> 75%"
smiles_representation=CC(=O)Nc1ccn(C(=O)N2CCC3(CCCN3C(=O)c3cc4ccc(C(F)(F)F)cc4s3)CC2)n1 result="> 75%"

Next:
QUERY: Quick one: inhibition at 1 µM of CC(C)C1CCN(c2cc(CN3CCN(C(=O)n4ccc(NS(C)(=O)=O)n4)CC3)ccc2Cl)CC1 ?
RESULT: > 75%

----------
Reported inhibition at 1 µM values for the following compounds.
molecular target: MAGL (Mus musculus (Mouse), UniProt O35678); experiment: In vitro competitive activity-based protein profiling, mouse proteomes (brain membrane fraction or cell lysates); type: biochemical; conditions: mouse proteome, read-out: MAGL % inh. 1 μM (mouse)
Sequence (O35678 whole entry): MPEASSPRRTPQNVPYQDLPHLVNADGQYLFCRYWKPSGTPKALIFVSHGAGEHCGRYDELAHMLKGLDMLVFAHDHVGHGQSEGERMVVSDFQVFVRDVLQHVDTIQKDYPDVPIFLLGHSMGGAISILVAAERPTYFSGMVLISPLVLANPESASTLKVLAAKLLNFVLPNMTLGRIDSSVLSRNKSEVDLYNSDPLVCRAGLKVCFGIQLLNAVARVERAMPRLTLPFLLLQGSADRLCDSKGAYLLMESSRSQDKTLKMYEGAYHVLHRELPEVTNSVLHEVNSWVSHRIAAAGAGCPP

Some entries whose results are on file:
compound="C[C@@H]1CN(C(=O)n2ccc(NS(C)(=O)=O)n2)CCN1Cc1ccc(C(F)(F)F)c(N2CC3COCC3C2)c1 (stereo partly drawn) [Example 182]" result="> 75%"
compound="CS(=O)(=O)Nc1ccn(C(=O)N2CCC(Oc3ccc(C(F)(F)F)cc3C(=O)N3CCCC3)CC2)n1 [Example 101]" result="50 to 75%"
compound="CC(=O)Nc1ccn(C(=O)N2CC3CN(Cc4cc(N5CCCC5)cc(C(F)(F)F)c4)CC3C2)n1 (stereo not drawn) [Example 168]" result="> 75%"
compound="CN(Cc1ccc(C(F)(F)F)cc1N1CCOCC1)C1(C)CCN(C(=O)n2ccc(NS(C)(=O)=O)n2)CC1 [Example 94]" result="> 75%"
compound="CC(=O)Nc1ccn(C(=O)N2CCC3(CCN(Cc4cc(F)cc(Cl)c4)C3)CC2)n1 [Example 176]" result="> 75%"

QUERY: Quick one: inhibition at 1 µM of CC(=O)Nc1ccn(C(=O)N2CCN(Cc3ccc(Cl)cc3OCCCC(=O)O)CC2)n1 [Example 106] ?
RESULT: > 75%

QUERY: What would you report for CS(=O)(=O)Nc1ccn(C(=O)N2CCC(OCc3ccc(N4CCC(F)CC4)c(Cl)c3)CC2)n1 [Example 30] ?
RESULT: > 75%

QUERY: What would you report for CS(=O)(=O)Nc1ccn(C(=O)N2CC3CN(Cc4cc(Cl)ccc4C(F)(F)F)CC3C2)n1 (stereo not drawn) [Example 45] ?
RESULT: 0 to 25%

QUERY: What would you report for C[C@@H]1CN(C(=O)n2ccc(NS(C)(=O)=O)n2)CCN1Cc1ccc(Cl)c(N2CCCC2)c1 [Example 224] ?
RESULT: > 75%

QUERY: What would you report for CS(=O)(=O)Nc1ccn(C(=O)N2CCC3(CCN(Cc4ccc(Cl)cc4N4CCCC4)C3)CC2)n1 [Example 63] ?
RESULT: > 75%

----------
biological target: FAAH (Homo sapiens (Human)); assay: In vitro competitive activity-based protein profiling, human proteomes (prefrontal cortex or PC3 cell membrane fractions); type: biochemical; conditions: human proteome
reported-property: IC50

Some entries whose results are on file:
compound=CC(C)(O)COc1cccc(CN2CCN(C(=O)n3ccc(NS(C)(=O)=O)n3)CC2)c1Cl reported_property=IC50 result="0.1 to 1 µM"
compound="CC(=O)Nc1ccn(C(=O)N2CC3CN(Cc4ccc(N5CCCC5)cc4C(F)(F)F)CC3C2)n1 (centres unmarked)" reported_property=IC50 result="0.1 to 1 µM"
compound=CC(=O)Nc1ccn(C(=O)N2CCC3(CCCN3Cc3cc4cc(Cl)ccc4s3)CC2)n1 reported_property=IC50 result="1 to 10 µM"
compound="CC(=O)Nc1ccn(C(=O)N2CCN(Cc3ccc(N4CC5COCC5C4)cc3C(F)(F)F)CC2)n1 (centres unmarked)" reported_property=IC50 result="0.1 to 1 µM"

Next:
QUERY: Quick one: IC50 of CC(=O)Nc1ccn(C(=O)N2CC3CN(Cc4cccc(Oc5ccccc5Cl)c4)CC3C2)n1 (centres unmarked) ?
RESULT: 0.1 to 1 µM

----------
Reported inhibition at 1 µM values for the following compounds.
Biological target: MAGL (Mus musculus (Mouse))
Experiment: In vitro competitive activity-based protein profiling, mouse proteomes (brain membrane fraction or cell lysates)
Format: biochemical
Settings: mouse proteome, read-out: MAGL % inh. 1 μM (mouse)
Protocol: In Vitro Competitive Activity-Based Protein Profiling. Proteomes (mouse brain membrane fraction or cell lysates for mouse assays; human prefrontal cortex or PC3 cell membrane fractions for human assays) (50 μL, 1.0 or 2.0 mg/mL total protein concentration) were preincubated with varying concentrations of inhibitors at 37° C. […] Following gel imaging, serine hydrolase activity was determined by measuring fluorescent intensity of gel bands corresponding to MAGL and FAAH using ImageJ 1.43u software.

compound="CC(=O)Nc1ccn(C(=O)N2CC3CN(Cc4cccc(Oc5ccccc5Cl)c4)CC3C2)n1 (stereo not shown)" result="> 75%"
compound=CS(=O)(=O)Nc1ccn(C(=O)N2CCN(Cc3ccc(C(F)(F)F)nc3N3CCCC3)CC2)n1 result="> 75%"
compound="CC(=O)Nc1ccn(C(=O)N2CC3CN(Cc4cc(N5CCOCC5)cc(C(F)(F)F)c4)CC3C2)n1 (stereo not shown)" result="> 75%"
compound=CS(=O)(=O)Nc1ccn(C(=O)N2CCC(Oc3ccc(C(F)(F)F)nc3N3CCCC3)CC2)n1 result="> 75%"
compound="CC(=O)Nc1ccn(C(=O)N2CC3CN(Cc4cccc(Oc5ccccc5)c4)CC3C2)n1 (stereo not shown)" result="> 75%"

QUERY: Item CC(=O)Nc1ccn(C(=O)N2CCC3(CCCN3C(=O)c3ccc(Cl)c(C)c3)CC2)n1 with MAGL (Mus musculus (Mouse)) - inhibition at 1 µM?
RESULT: > 75%

QUERY: What would you report for CC(=O)Nc1ccn(C(=O)N2CCC3(CCN(Cc4ccc(N5CCCC5)cc4C(F)(F)F)C3)CC2)n1 ?
RESULT: > 75%

QUERY: What would you report for CS(=O)(=O)Nc1ccn(C(=O)N2CCC3(CCN(Cc4ccc(Cl)cc4)C3)CC2)n1 ?
RESULT: 0 to 25%

QUERY: What would you report for CC(=O)Nc1ccn(C(=O)N2CC3CN(Cc4ccc(Cl)cc4)CC3C2)n1 (stereo not shown) ?
RESULT: > 75%

QUERY: What would you report for CC(=O)N(Cc1ccc(C(F)(F)F)cc1N1CCCC1)C1(C)CCN(C(=O)n2ccc(NS(C)(=O)=O)n2)CC1 ?
RESULT: > 75%
